- Tested on: LOX IMVI
- procedure-details: NCI tumour cell line growth inhibition, 48 h
Active and inactive are the calls of the source. Cut-off read from the data, not from the text of the source: active = GI50 up to about 1.1 µM and inactive = higher.
result-type: GI50

compound | result-type | measured-result
Cc1cc(C)nc(NS(=O)(=O)c2ccc(Nc3nncc(=O)n3N)cc2)n1 | GI50 | 14.2 µM (inactive)
CC(C)(C)[Si](C)(C)OCC1OC(n2ccc(=O)[nH]c2=O)C(O[Si](C)(C)C(C)(C)C)[C@@]12O[C@H]2C(N)=O (stereo not given in full) | GI50 | 3.4 µM (inactive)
O=C1CSC2(CC(/C=C/c3ccccc3O)=NN2c2cccc(S(=O)(=O)O)c2)N1c1nc2ccccc2s1 (stereo not given) | GI50 | 17.3 µM (inactive)
CC(C)=CCC/C(=C/CC/C(=C\CCc1ccoc1)C(=O)O)C(=O)O | GI50 | > 100 µM (inactive)

As a next step, examine the compound that follows.
What measured GI50 goes with C1C[N+]23CCC[N+]2(C1)CCC3 (stereo not given) ?
> 100 µM (inactive)
